# Target under test: Nurr1258 (in Nurr1258-RXRα98 heterodimer);RXRα98 (DBD-hinge-LBD) (human?;human?, UniProt P43354;P19793 258-598;98-462, |)
# Sequence (P43354 258-598, chain 1 of 2): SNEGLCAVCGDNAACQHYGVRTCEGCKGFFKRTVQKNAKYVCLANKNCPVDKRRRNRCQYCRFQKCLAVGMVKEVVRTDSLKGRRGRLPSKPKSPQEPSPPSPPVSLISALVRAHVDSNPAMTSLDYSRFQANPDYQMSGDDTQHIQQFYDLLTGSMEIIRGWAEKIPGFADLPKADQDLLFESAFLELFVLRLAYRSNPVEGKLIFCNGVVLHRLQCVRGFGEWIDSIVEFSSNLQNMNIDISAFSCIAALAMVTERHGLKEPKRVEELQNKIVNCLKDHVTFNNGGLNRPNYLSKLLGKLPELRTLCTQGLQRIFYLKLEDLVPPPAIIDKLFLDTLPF
# Sequence (P19793 98-462, chain 2 of 2): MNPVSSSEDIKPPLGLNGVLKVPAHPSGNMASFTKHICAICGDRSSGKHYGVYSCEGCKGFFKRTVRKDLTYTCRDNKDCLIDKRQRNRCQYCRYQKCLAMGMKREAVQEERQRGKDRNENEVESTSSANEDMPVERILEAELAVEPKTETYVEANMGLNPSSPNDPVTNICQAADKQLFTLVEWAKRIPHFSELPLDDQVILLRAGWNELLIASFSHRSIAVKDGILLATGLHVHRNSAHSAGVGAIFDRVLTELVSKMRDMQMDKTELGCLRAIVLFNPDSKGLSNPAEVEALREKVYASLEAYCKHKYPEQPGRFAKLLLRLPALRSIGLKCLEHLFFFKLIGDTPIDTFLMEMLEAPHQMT
# Measurement notes: BLI

{"columns": ["Binder", "Quantity unit", "Kd"],
 "data": [
  ["IR5 biotinylated (dsDNA) DNA 1: AAAGGTCAAACTGTGACCTAT DNA 2: ATAGGTCACAGTTTGACCTTT", "nM", 62.5]
]}
